Catalogue of IC50 readings, one per entry.
target entity: p-EGFR L858R (BaF3-L858R cells) (Homo sapiens, UniProt P00533, L858R)
Sequence (P00533 25-1210 L858R): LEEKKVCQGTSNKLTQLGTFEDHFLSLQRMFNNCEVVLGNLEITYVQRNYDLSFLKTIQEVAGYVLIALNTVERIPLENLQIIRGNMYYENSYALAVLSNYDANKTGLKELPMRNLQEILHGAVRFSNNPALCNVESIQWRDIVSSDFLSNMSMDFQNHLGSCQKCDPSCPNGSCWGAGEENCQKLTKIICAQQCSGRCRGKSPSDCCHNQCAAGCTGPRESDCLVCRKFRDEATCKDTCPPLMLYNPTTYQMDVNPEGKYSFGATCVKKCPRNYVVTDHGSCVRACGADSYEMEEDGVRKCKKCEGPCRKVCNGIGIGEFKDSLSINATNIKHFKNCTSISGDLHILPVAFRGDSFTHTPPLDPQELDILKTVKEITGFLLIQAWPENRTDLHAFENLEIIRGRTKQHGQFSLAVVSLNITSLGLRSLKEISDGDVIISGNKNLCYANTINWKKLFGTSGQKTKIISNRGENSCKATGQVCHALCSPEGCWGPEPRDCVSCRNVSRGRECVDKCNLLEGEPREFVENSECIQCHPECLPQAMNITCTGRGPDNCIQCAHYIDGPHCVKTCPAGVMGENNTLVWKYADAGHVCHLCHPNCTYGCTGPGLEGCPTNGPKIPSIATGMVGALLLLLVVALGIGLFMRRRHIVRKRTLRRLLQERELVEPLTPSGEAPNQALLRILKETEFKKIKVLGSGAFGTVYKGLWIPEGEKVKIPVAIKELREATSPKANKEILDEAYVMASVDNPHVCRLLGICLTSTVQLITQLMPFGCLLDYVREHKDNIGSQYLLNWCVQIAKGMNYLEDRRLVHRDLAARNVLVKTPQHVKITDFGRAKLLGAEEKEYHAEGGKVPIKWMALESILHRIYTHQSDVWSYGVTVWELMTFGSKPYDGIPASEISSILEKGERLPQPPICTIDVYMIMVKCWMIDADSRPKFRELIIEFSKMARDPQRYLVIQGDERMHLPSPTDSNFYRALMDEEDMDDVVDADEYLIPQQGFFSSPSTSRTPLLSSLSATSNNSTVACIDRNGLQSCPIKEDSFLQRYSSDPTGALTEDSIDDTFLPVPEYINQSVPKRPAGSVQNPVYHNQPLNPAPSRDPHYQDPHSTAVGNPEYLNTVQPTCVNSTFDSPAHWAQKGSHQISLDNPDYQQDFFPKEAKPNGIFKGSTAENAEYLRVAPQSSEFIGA
experiment notes: Cell p-EGFR inhibition assay, HTRF, BaF3-L858R cells
study conditions: 16 h treatment, pEGFR inhibition
Report the value in nM with no unit label.

Below: 2 molecules and their reported IC50.
molecule	target entity	IC50 [nM]
Cc1cc2cc(n1)-c1c(C)nn(C)c1OC[C@H]1CC[C@H](C1)CN1/C(=N/C2=O)Nc2ccc(N3CCN(CC4CN(c5cc(F)c([C@H]6CCC(=O)NC6=O)c(F)c5)C4)[C@@H](CF)C3)cc21	p-EGFR L858R (BaF3-L858R cells) (Homo sapiens, UniProt P00533, L858R)	1.04
Cc1cc2cc(n1)-c1cnn(C)c1OC[C@H]1CCC(C1)CN1/C(=N/C2=O)Nc2ccc(N3CCN(C4CCN(c5cc(F)c(C6CCC(=O)NC6=O)c(F)c5)CC4)[C@@H](C)C3)cc21 (stereo partly drawn)	p-EGFR L858R (BaF3-L858R cells) (Homo sapiens, UniProt P00533, L858R)	18.2

Now take the following molecule into account.
Look up IC50: Cc1cc2cc(n1)-c1cnn(C)c1OC[C@H]1CCC(C1)CN1/C(=N/C2=O)Nc2ccc(N3CCN(C4CCN(c5ccc(NC6CCC(=O)NC6=O)cc5Cl)CC4)CC3)cc21 (stereo partly drawn)
16.3
